From: paper PMC11580166

measurement.target: T1, Vacuolar Protein Sorting-Associated 26B (AtVPS26B) (Arabidopsis thaliana, UniProt Q9T091 1-303)
T1 chain: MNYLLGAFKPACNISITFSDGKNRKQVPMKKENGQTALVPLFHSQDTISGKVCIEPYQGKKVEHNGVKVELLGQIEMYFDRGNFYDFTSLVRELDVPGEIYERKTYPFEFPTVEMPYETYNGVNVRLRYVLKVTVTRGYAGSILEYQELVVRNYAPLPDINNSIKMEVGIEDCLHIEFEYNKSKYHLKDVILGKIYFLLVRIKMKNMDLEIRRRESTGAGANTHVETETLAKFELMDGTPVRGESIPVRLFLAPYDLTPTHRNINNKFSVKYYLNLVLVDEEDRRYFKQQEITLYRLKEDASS
procedure.text: ITC; phosphorylated S428, S431, S435
Where no end group is shown, it is not given here. [ ]: non-standard residue; d: D form. pS = N[C@@H](COP(=O)(O)O)C(=O)O
metric: Kd (nM)
Just the number in nM, nothing appended.

## Task If you can, please state the reported Kd value of GGGAMHKEGY[pS]FS[pS]PRL[pS]SVQGSDDPFYQEHMSKSSRCSSPG (N-terminal GGG added to the peptide; AtRGS1 C-terminal tail, Arabidopsis thaliana, UniProt Q8H1F2, residues A421-G459; Purity 87%; also called RGS1 pC-tail; ptail; source: synthetic peptide (UNC Peptide Core Facility)) [AtRGS1 pSer C tail peptide (A421-G459, phosphorylated at S428, S431, S435)] .
## Result 17
